conditions: buffer; pH 7.4; 200.0 µM
quantity.measured: solubility kinetic (µg/mL)

molecule: CC(NC1c2ccccc2-c2ccccc21)c1ccccc1 (centres undefined)
quantity.measured: solubility kinetic
unit.info: µg/mL
limit.qualifier: <
value.measured: 0.6
--
molecule: CCc1nc(N)nc(N)c1-c1ccc(Cl)cc1
quantity.measured: solubility kinetic
unit.info: µg/mL
limit.qualifier: >
value.measured: 37.3
--
molecule: O=C(Cc1cccc2ccccc12)Nc1cc(C(=O)O)cc(C(=O)O)c1
quantity.measured: solubility kinetic
unit.info: µg/mL
limit.qualifier: >
value.measured: 52.4
--
molecule: CC(=O)N1CCN(CC(=O)Nc2cc(S(=O)(=O)N3CCCCC3)ccc2C)CC1
quantity.measured: solubility kinetic
unit.info: µg/mL
limit.qualifier: >
value.measured: 63.4
--
molecule: Cn1c(N)c(C(=O)COC(=O)Cc2ccccc2F)c(=O)n(C)c1=O
quantity.measured: solubility kinetic
unit.info: µg/mL
limit.qualifier: =
value.measured: 24.2
--
molecule: O=C1OCc2nc3cc4c(cc3c(-c3ccc(F)cc3)c21)OCO4
quantity.measured: solubility kinetic
unit.info: µg/mL
limit.qualifier: =
value.measured: 1.2
--
molecule: CCCCNC(=O)CCc1nc2cccnc2n1Cc1ccccc1
quantity.measured: solubility kinetic
unit.info: µg/mL
limit.qualifier: >
value.measured: 50.5
--
molecule: CN1C(=O)c2cccc3c(S(=O)(=O)N4CCCC4C(=O)O)ccc1c23 (centres undefined)
quantity.measured: solubility kinetic
unit.info: µg/mL
limit.qualifier: >
value.measured: 54.1
--
molecule: Cc1ccccc1Oc1nc2c(c(=O)n(C)c(=O)n2C)n1C
quantity.measured: solubility kinetic
unit.info: µg/mL
limit.qualifier: >
value.measured: 45
--
molecule: Cc1ccc(C(=O)/C=C/c2cc(C#N)n(C)c2C)cc1
quantity.measured: solubility kinetic
unit.info: µg/mL
limit.qualifier: =
value.measured: 1.2
--
molecule: CC(=O)Nc1ccc(Nc2ncnc3ccccc23)cc1
quantity.measured: solubility kinetic
unit.info: µg/mL
limit.qualifier: =
value.measured: 6.5
--
molecule: O=C1c2ccccc2C(=O)N1CCOc1ccc(F)cc1
quantity.measured: solubility kinetic
unit.info: µg/mL
limit.qualifier: =
value.measured: 4
--
molecule: COc1ccc(S(=O)(=O)Nc2cccc(F)c2)cc1C
quantity.measured: solubility kinetic
unit.info: µg/mL
limit.qualifier: >
value.measured: 44.3
--
molecule: Nc1cc(S(=O)(=O)N2CCCCC2)ccc1Oc1ccccc1
quantity.measured: solubility kinetic
unit.info: µg/mL
limit.qualifier: =
value.measured: 10.8
--
molecule: CNC(=O)CSc1nc(-c2ccccc2)c(-c2ccccc2)o1
quantity.measured: solubility kinetic
unit.info: µg/mL
limit.qualifier: =
value.measured: 3.3
--
molecule: O=C(COC(=O)/C=C/c1cccc(Br)c1)NCc1cccs1
quantity.measured: solubility kinetic
unit.info: µg/mL
limit.qualifier: =
value.measured: 5
--
molecule: O=C(NC(c1ccccc1)c1ccccn1)c1cccc([N+](=O)[O-])c1 (centres undefined)
quantity.measured: solubility kinetic
unit.info: µg/mL
limit.qualifier: =
value.measured: 38.3
--
molecule: CC(C)Oc1ccc(C(=O)Nc2nc3ccccc3[nH]2)cc1
quantity.measured: solubility kinetic
unit.info: µg/mL
limit.qualifier: =
value.measured: 1.3
--
molecule: CCOc1ccc(CN2CCC(Cc3ccccc3)CC2)cc1
quantity.measured: solubility kinetic
unit.info: µg/mL
limit.qualifier: =
value.measured: 24.3
--
molecule: COC(=O)C(N)Cc1ccc(OC)c([N+](=O)[O-])c1.Cl (centres undefined)
quantity.measured: solubility kinetic
unit.info: µg/mL
limit.qualifier: >
value.measured: 43.6
--
molecule: O=C(Cn1cc(C(=O)C2CC2)c2ccccc21)Nc1ccc(F)cc1
quantity.measured: solubility kinetic
unit.info: µg/mL
limit.qualifier: =
value.measured: 0.7
--
molecule: Cc1ccnc(NC(=O)CCc2c[nH]c3ccccc23)c1
quantity.measured: solubility kinetic
unit.info: µg/mL
limit.qualifier: >
value.measured: 41.9
--
molecule: CC(=O)Nc1ccc2c(c1)nc(CCN1CCN(c3ccccn3)CC1)n2C
quantity.measured: solubility kinetic
unit.info: µg/mL
limit.qualifier: <
value.measured: 0.1
--
molecule: Cc1cnc(C(=O)OCC(=O)c2ccc(F)cc2)cn1
quantity.measured: solubility kinetic
unit.info: µg/mL
limit.qualifier: >
value.measured: 41.1
--
molecule: O=C1/C(=C\c2ccc(O)c(O)c2)N=C2CCCCCN12
quantity.measured: solubility kinetic
unit.info: µg/mL
limit.qualifier: >
value.measured: 40.8
--
molecule: COc1c(N2CCN[C@H](C)C2)c(F)cc2c(=O)c(C(=O)O)cn(C3CC3)c12
quantity.measured: solubility kinetic
unit.info: µg/mL
limit.qualifier: =
value.measured: 38.6
--
molecule: COc1ccc(-c2cc(C(=O)N3CCOCC3)no2)cc1
quantity.measured: solubility kinetic
unit.info: µg/mL
limit.qualifier: >
value.measured: 43.2
--
molecule: c1ccc(-c2nc(NC3CCCC3)c3ccccc3n2)cc1
quantity.measured: solubility kinetic
unit.info: µg/mL
limit.qualifier: =
value.measured: 3.1
--
molecule: Cc1cc(C)cc(N=C2NC(=O)CS2)c1
quantity.measured: solubility kinetic
unit.info: µg/mL
limit.qualifier: >
value.measured: 33
--
molecule: COC(=O)CCC(=O)NC(=S)Nc1ccc(S(=O)(=O)Nc2cc(C)on2)cc1
quantity.measured: solubility kinetic
unit.info: µg/mL
limit.qualifier: =
value.measured: 57.4
--
molecule: COc1cc2ccccc2cc1C(=O)NC(=S)Nc1cccc(C(=O)O)c1C
quantity.measured: solubility kinetic
unit.info: µg/mL
limit.qualifier: =
value.measured: 18.3
--
molecule: Cc1cc(S(=O)(=O)Nc2nc(CN3CCOCC3)nc3sc4c(c23)CCC4)ccc1F
quantity.measured: solubility kinetic
unit.info: µg/mL
limit.qualifier: =
value.measured: 67.4
--
molecule: O=C(Cn1cnc([N+](=O)[O-])c1)Nc1ccccc1C(F)(F)F
quantity.measured: solubility kinetic
unit.info: µg/mL
limit.qualifier: =
value.measured: 39
--
molecule: CSc1ccccc1-c1nc(-c2ccncc2)no1
quantity.measured: solubility kinetic
unit.info: µg/mL
limit.qualifier: =
value.measured: 1.2
--
molecule: CC1CCCN(C(=O)CCCNC(=O)c2ccc(Cl)cc2)C1 (centres undefined)
quantity.measured: solubility kinetic
unit.info: µg/mL
limit.qualifier: >
value.measured: 48.4
--
molecule: COc1ccccc1-n1c(C)c(C(C)=O)c2cc(O)ccc21
quantity.measured: solubility kinetic
unit.info: µg/mL
limit.qualifier: =
value.measured: 3
--
molecule: NC1=NC(=O)/C(=C/c2ccc(Br)cc2)S1
quantity.measured: solubility kinetic
unit.info: µg/mL
limit.qualifier: =
value.measured: 1.8
--
molecule: CC(=O)Nc1ccccc1OC(C)C(=O)N1CC(C)CC(C)C1 (centres undefined)
quantity.measured: solubility kinetic
unit.info: µg/mL
limit.qualifier: >
value.measured: 47.8
--
molecule: CNC(=O)c1ccc(NC(=O)CCc2c(C)noc2C)cc1
quantity.measured: solubility kinetic
unit.info: µg/mL
limit.qualifier: >
value.measured: 45.2

###

settings: buffer; pH 7.4; 200.0 µM
Entries and their solubility kinetic
quantity.measured: solubility kinetic (µg/mL)

compound: O=S(=O)(Cc1ccccc1Cl)NCCc1ccc(F)cc1
unit.info: µg/mL
limit.qualifier: >
value.measured: 49.2
--
compound: CC(CC(=O)OCC(=O)NC1CCS(=O)(=O)C1)c1ccccc1 (stereo unspecified)
unit.info: µg/mL
limit.qualifier: >
value.measured: 50.9
--
compound: CC(=O)Nc1ccc(S(=O)(=O)N(C)C2CCN(C)CC2)cc1
unit.info: µg/mL
limit.qualifier: >
value.measured: 48.8
--
compound: CCCC1C(=O)Nc2ccccc2N1C(=O)c1cccc(C)c1 (stereo unspecified)
unit.info: µg/mL
limit.qualifier: >
value.measured: 46.3
--
compound: Cc1cc(C)nc(SCC(=O)Nc2nonc2N)n1
unit.info: µg/mL
limit.qualifier: >
value.measured: 42
--
compound: CCC(C)c1ccc(C(C)NC(=S)NCc2ccc(F)cc2)cc1 (stereo unspecified)
unit.info: µg/mL
limit.qualifier: <
value.measured: 0.4
--
compound: COc1ccc(S(=O)(=O)N2CCOCC2)cc1NC(=O)CSc1nnc(C2CC2)n1C
unit.info: µg/mL
limit.qualifier: >
value.measured: 70.1
--
compound: CC1CCCC(C)N1C(=O)COC(=O)CCC(=O)c1cccs1 (stereo unspecified)
unit.info: µg/mL
limit.qualifier: >
value.measured: 50.6
--
compound: Nc1nc(NCCCN2CCOCC2)nc(Nc2cccc(F)c2)c1[N+](=O)[O-]
unit.info: µg/mL
limit.qualifier: =
value.measured: 6.3
--
compound: Cc1cccc(NS(=O)(=O)c2ccc3c(c2)oc(=O)n3C)c1C
unit.info: µg/mL
limit.qualifier: =
value.measured: 1.5
--
compound: CC(C)(C)c1ccc(C(=O)NC(=O)CSc2n[nH]c(N)n2)cc1
unit.info: µg/mL
limit.qualifier: >
value.measured: 50
--
compound: O=C(NCCc1ccccc1)C1CCCN(c2cnccn2)C1 (stereo unspecified)
unit.info: µg/mL
limit.qualifier: =
value.measured: 45.9
--
compound: Cc1cc(SCC(=O)c2ccc(Cl)cc2)nc(=O)[nH]1
unit.info: µg/mL
limit.qualifier: =
value.measured: 16.5
--
compound: C=CCN1C(=O)c2ccccc2NC1c1cc(Br)cs1 (stereo unspecified)
unit.info: µg/mL
limit.qualifier: =
value.measured: 41.1
--
compound: CC(C)Cn1c(-c2ccc(Br)cc2)c[nH]c1=S
unit.info: µg/mL
limit.qualifier: =
value.measured: 5.7
--
compound: CCc1cnccc1CCC(=O)Nc1ccccc1C
unit.info: µg/mL
limit.qualifier: =
value.measured: 35.4
--
compound: CNC(=O)N(C)c1ccc(C(O)(C(=O)OC)C(F)(F)F)cc1 (stereo unspecified)
unit.info: µg/mL
limit.qualifier: =
value.measured: 46.7
--
compound: COc1ccc2[nH]c3c(c2c1)CC(C)NC3=O (stereo unspecified)
unit.info: µg/mL
limit.qualifier: =
value.measured: 33.3
--
compound: COc1ccc(Nc2cc(C)c3c(O)cccc3n2)cc1
unit.info: µg/mL
limit.qualifier: =
value.measured: 22.1
--
compound: O=C(CC(c1ccccc1)c1cc(Cl)ccc1O)N1CCCC1 (stereo unspecified)
unit.info: µg/mL
limit.qualifier: >
value.measured: 49.5
--
compound: O=C(OCC(=O)N1CCOCC1)c1ccc(F)cc1Cl
unit.info: µg/mL
limit.qualifier: >
value.measured: 45.3
--
compound: COc1ccc(/C=C/C(=O)OCC(=O)NC2CCCC(C)C2C)c(OC)c1 (stereo unspecified)
unit.info: µg/mL
limit.qualifier: =
value.measured: 5
--
compound: Cc1ccc(C)c(NC(=O)CN(C)C(=O)COc2ccc3ccccc3c2)c1
unit.info: µg/mL
limit.qualifier: =
value.measured: 3.1
--
compound: CC(C)(C)C(=O)Nc1ccc(S(=O)(=O)NC2=NCCCCC2)cc1
unit.info: µg/mL
limit.qualifier: >
value.measured: 52.7
--
compound: COc1ccc(OC)c(C(C)NC(=S)NC2CCCCC2)c1 (stereo unspecified)
unit.info: µg/mL
limit.qualifier: =
value.measured: 28
--
compound: COc1ccccc1NC(=O)C1=C(C)NC(=O)NC1c1ccco1 (stereo unspecified)
unit.info: µg/mL
limit.qualifier: >
value.measured: 49.1
--
compound: CC(Cc1ccccc1)NC(=O)c1ccc(N)cc1 (stereo unspecified)
unit.info: µg/mL
limit.qualifier: >
value.measured: 38.1
--
compound: O=C1CC(C(=O)N2CCCc3ccccc32)CN1c1ccc(Cl)cc1 (stereo unspecified)
unit.info: µg/mL
limit.qualifier: =
value.measured: 46.2
--
compound: CCOC(=O)C(C)Oc1ccc(NC(=O)C(Cl)Cl)cc1 (stereo unspecified)
unit.info: µg/mL
limit.qualifier: >
value.measured: 48
--
compound: COc1ccccc1/C=C/C(=O)NCCc1ccccn1
unit.info: µg/mL
limit.qualifier: =
value.measured: 41.9
--
compound: COc1cc(CNC2CCCCCCC2)ccc1OCC(N)=O
unit.info: µg/mL
limit.qualifier: >
value.measured: 48.1
--
compound: O=C1C(Cc2c[nH]c3ccccc23)NC(=S)N1C1CCCCC1 (stereo unspecified)
unit.info: µg/mL
limit.qualifier: =
value.measured: 49
--
compound: CC(=O)NC(Cc1c[nH]c2ccccc12)C(=O)NCCc1ccccc1 (stereo unspecified)
unit.info: µg/mL
limit.qualifier: >
value.measured: 52.4
--
compound: COC(=O)c1c(NC(=O)c2ccc(C)cc2)csc1C
unit.info: µg/mL
limit.qualifier: <
value.measured: 0.6
--
compound: COC(=O)c1cc(=O)n(-c2c(Cl)cc(C(F)(F)F)cc2Cl)[nH]1
unit.info: µg/mL
limit.qualifier: >
value.measured: 53.3
--
compound: CCc1cc2c(CN(C)Cc3ccccc3F)cc(=O)oc2cc1O
unit.info: µg/mL
limit.qualifier: =
value.measured: 9.5

Data credit: PubChem BioAssay AID1996
